# TGT: human S1P1 (Homo sapiens (Human))
# Sequence (P21453 whole entry): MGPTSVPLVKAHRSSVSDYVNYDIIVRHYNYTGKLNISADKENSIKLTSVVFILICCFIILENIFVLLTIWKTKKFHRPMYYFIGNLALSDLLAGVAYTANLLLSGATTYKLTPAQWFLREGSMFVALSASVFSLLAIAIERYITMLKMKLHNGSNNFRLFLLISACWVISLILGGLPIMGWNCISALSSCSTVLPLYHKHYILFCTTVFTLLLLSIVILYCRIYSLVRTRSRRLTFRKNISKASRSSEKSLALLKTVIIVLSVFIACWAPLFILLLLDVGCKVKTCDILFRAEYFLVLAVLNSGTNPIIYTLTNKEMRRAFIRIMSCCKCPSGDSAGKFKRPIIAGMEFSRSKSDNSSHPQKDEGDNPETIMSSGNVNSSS
# RUN_DESCRIPTION: S1P1 binding assay (33P-S1P radioligand competition, CHO cell membranes)
# EXPERIMENTAL_PARAMETERS: phosphate examples; read-out: S1P1 Binding
Measured IC50 accompanies every entry in the list below.

Example cases with answers are listed next.
Record request: IC50 value, item COCCCCCC[C@H]1CCc2cc(C3CCC(N)(COP(=O)(O)O)C3)ccc2C1 (single isomer, unassigned) < 0.01 µM

Record request: IC50 value, item Cc1cccc(OC[C@@H]2CCc3cc([C@H]4CC[C@](N)(COP(=O)(O)O)C4)ccc3C2)c1 0.1 to 1 µM

Record request: IC50 value, item COc1cccc(SC[C@@H]2CCc3cc([C@H]4CC[C@](N)(COP(=O)(O)O)C4)ccc3C2)c1 0.01 to 0.1 µM

Record request: IC50 value, item CCCCOCCO[C@@H]1CCc2cc([C@@H]3CC[C@@](N)(COP(=O)(O)O)C3)ccc2C1 < 0.01 µM

Record request: IC50 value, item CC(C)(C)CCSC[C@H]1CCc2cc([C@H]3CC[C@](N)(COP(=O)(O)O)C3)ccc2C1 < 0.01 µM

Next:
Record request: IC50 value, item C=CCC/C=C/[C@@H]1CCc2cc([C@H]3CC[C@](N)(COP(=O)(O)O)C3)ccc2C1 0.01 to 0.1 µM

Record request: IC50 value, item CCCCCC[C@@H]1COc2cc([C@@H]3CC[C@](N)(COP(=O)(O)O)C3)ccc2C1 0.1 to 1 µM

Record request: IC50 value, item Cc1ccc(OC[C@H]2CCc3cc([C@H]4CC[C@](N)(COP(=O)(O)O)C4)ccc3C2)cc1 0.01 to 0.1 µM

Record request: IC50 value, item C/C=C\CCCC[C@@H]1CCc2cc([C@H]3CC[C@](N)(COP(=O)(O)O)C3)ccc2C1 < 0.01 µM

Record request: IC50 value, item N[C@@]1(COP(=O)(O)O)CC[C@@H](c2ccc3c(c2)CC[C@H](OCCOCc2ccccc2)C3)C1 < 0.01 µM

Record request: IC50 value, item CC(C)OCCC[C@@H]1CCc2cc([C@@H]3CC[C@@](N)(COP(=O)(O)O)C3)ccc2C1 < 0.01 µM

Record request: IC50 value, item C=CCCCOC[C@@H]1CCc2cc([C@H]3CC[C@](N)(COP(=O)(O)O)C3)ccc2C1 < 0.01 µM
